Measured inhibition of growth at 10 µM values are reported for all entries that follow.
System: TK-10
test-details: Cytotoxicity against human TK10 cells assessed as growth inhibition at 10 uM after 48 hrs by coulter counter analysis
Assay type: functional
reported-conditions: TK-10, 48 h, read-out: GI

Answered cases to consult:
- sample-smiles: "O=C(CSc1nc2ccccc2c(=O)n1CCc1ccccc1)Nc1ccc(Cl)cc1"
  assay-endpoint: "inhibition of growth at 10 µM"
  result: "19%"
- sample-smiles: "O=C(CSc1nc2ccccc2c(=O)n1CCc1ccccc1)Nc1cc(Cl)ccc1C(=O)O"
  assay-endpoint: "inhibition of growth at 10 µM"
  result: "< 10%"
- sample-smiles: "CC(=O)c1ccc(NC(=O)CSc2nc3ccccc3c(=O)n2CCc2ccccc2)cc1"
  assay-endpoint: "inhibition of growth at 10 µM"
  result: "< 10%"

Value lookup for inhibition of growth at 10 µM; key = COc1cc(NC(=O)CCSc2nc3ccccc3c(=O)n2CCc2ccccc2)cc(OC)c1OC
17%

Lookup O=C(CSc1nc2ccccc2c(=O)n1CCc1ccccc1)Nc1ccc(F)cc1
< 10%

Lookup O=C(CSc1nc2ccccc2c(=O)n1CCc1ccccc1)Nc1ccccc1
< 10%

Lookup O=C(CSc1nc2ccccc2c(=O)n1CCc1ccccc1)Nc1ccccc1C(=O)O
19%

Lookup COc1cc(NC(=O)CSc2nc3ccccc3c(=O)n2CCc2ccccc2)cc(OC)c1OC
> 100%

Lookup Cc1ccc(NC(=O)CSc2nc3ccccc3c(=O)n2CCc2ccccc2)cc1
< 10%

Lookup O=C(CSc1nc2ccccc2c(=O)n1CCc1ccccc1)Oc1ccccc1
< 10%

Lookup COc1ccc(NC(=O)CSc2nc3ccccc3c(=O)n2CCc2ccccc2)cc1
10%
